# test protocol: Solvent characteristics (hydrophobic / polar / hydrophilic / complex)
# Format: physicochemical
assay metric: Solvent characteristics

molecule	assay metric	reported result
CC(=O)OC(C)C [ISOPROPYL-ACETATE, Isopropyl-acetate]	Solvent characteristics	Polar
C=C(Cl)Cl	Solvent characteristics	Hydrophobic
CCCCC	Solvent characteristics	Hydrophobic
c1ccc2c(c1)CCCC2 [1,2,3,4-TETRAHYDRONAPHTHALENE, 1,2,3,4-Tetrahydronaphthalene]	Solvent characteristics	Hydrophobic

Note to self: Solvent characteristics recorded for C1CCOC1 [TETRAHYDROFURAN, Tetrahydrofuran] was Polar

====

# test protocol: Solvent characteristics (hydrophobic / polar / hydrophilic / complex)
# Format: physicochemical
assay metric: Solvent characteristics

Worked cases, answers included:
compound	reported result
CCOCCO	Hydrophobic/
CCOC(C)=O [ETHYL-ACETATE, Ethyl-acetate]	Hydrophobic/Polar
CC(=O)O	Complex
CC(C)CO	Hydrophobic/
c1ccccc1	Hydrophobic

Note to self: Solvent characteristics recorded for ClC(Cl)(Cl)Cl [CARBON-TETRACHLORIDE, Carbon-tetrachloride] was Hydrophobic
